Test system: HT-29
measurement description: Cytotoxicity against human HT-29 cells expressing COX1 and COX2 after 24 hrs by MTT assay
Format: functional, cell-based
experimental conditions: HT-29, 24 h

{"cpd smiles": "O=C(CCC(=O)Oc1ccccc1C(=O)Oc1ccc(-c2cc(=S)ss2)cc1)OCCCCO[N+](=O)[O-]", "IC50 / nM": 80}
{"cpd smiles": "O=C(CCCO[N+](=O)[O-])Oc1ccccc1C(=O)Oc1ccc(-c2cc(=S)ss2)cc1", "IC50 / nM": 48}
{"cpd smiles": "NC(=S)c1ccc(OC(=O)c2ccccc2OC(=O)CCCO[N+](=O)[O-])cc1", "IC50 / nM": 7500}
{"cpd smiles": "O=C(CCCC[C@@H]1CCSS1)Oc1ccccc1C(=O)OCCCCO[N+](=O)[O-]", "IC50 / nM": 300}
